- System: JAK2 (Homo sapiens, UniProt O60674)
- Sequence (O60674 whole entry): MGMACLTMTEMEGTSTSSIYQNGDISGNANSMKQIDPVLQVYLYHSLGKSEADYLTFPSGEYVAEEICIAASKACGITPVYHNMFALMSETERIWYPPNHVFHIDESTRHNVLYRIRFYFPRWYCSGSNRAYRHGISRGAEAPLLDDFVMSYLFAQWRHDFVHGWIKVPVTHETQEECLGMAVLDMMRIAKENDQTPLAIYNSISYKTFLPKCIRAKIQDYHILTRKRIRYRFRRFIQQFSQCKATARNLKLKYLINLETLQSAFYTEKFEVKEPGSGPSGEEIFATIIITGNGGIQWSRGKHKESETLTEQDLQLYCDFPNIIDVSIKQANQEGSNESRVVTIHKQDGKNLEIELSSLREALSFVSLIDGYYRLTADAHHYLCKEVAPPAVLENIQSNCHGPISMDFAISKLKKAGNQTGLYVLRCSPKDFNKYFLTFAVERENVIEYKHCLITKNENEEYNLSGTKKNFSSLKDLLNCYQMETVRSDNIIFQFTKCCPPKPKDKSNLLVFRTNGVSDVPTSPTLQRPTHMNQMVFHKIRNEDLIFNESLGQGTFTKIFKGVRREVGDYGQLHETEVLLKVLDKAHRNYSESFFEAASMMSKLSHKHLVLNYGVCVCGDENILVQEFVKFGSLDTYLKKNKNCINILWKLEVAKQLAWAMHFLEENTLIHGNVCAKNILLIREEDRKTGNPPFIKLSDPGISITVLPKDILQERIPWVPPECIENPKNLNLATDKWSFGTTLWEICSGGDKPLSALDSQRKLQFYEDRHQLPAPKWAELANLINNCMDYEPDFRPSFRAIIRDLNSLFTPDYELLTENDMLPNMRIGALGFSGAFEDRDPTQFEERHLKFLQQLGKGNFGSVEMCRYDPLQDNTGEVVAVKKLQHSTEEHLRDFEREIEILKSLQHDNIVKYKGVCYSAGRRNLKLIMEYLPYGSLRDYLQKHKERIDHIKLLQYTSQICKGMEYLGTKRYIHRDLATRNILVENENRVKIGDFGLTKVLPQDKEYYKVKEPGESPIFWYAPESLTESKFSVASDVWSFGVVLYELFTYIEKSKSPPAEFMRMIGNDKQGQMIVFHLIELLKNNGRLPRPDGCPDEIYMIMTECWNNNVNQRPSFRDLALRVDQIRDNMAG
pKd: −log10 of the molar value.
Measured Parameter: pKd

{"columns": ["Compound", "Value Observed"],
 "data": [
  ["N#CC[C@H](C1CCCC1)n1cc(-c2nc(Nc3ccc(C(=O)NCCCCNc4cccc5c4C(=O)N(C4CCC(=O)NC4=O)C5=O)cc3)nc3[nH]ccc23)cn1 (stereo partly shown)", 9.20]
]}

---

- System: JAK2 (Homo sapiens, UniProt O60674, I682F)
- Construct: endogenous in cells; host or cells: MHH-CALL-4
- Sequence (O60674 whole entry I682F): as the sequence (O60674 whole entry) above, with I682F counted along it
- Test Description: Target degradation (Western Blot) in MHH-CALL-4 cells, JAK2
- Assay type: cell-based
- Condition Notes: 100 nM PROTAC at 24 h

{"columns": ["Compound", "Target Degradation (Western Blot) JAK2"],
 "data": [
  ["CCS(=O)(=O)N1CC(CC#N)(n2cc(-c3nc(Nc4ccc(C(=O)NCCCCNc5cccc6c5C(=O)N(C5CCC(=O)N(C)C5=O)C6=O)cc4)nc4[nH]ccc34)cn2)C1 (stereo not drawn) [Compound 61]", "1 (1 = None (<20% degradation at 24 h))"],
  ["CCS(=O)(=O)N1CC(CC#N)(n2cc(-c3nc(Nc4ccc(C(=O)NCCCNc5ccc6c(c5)C(=O)N(C5CCC(=O)NC5=O)C6=O)cc4)nc4[nH]ccc34)cn2)C1 (stereo not drawn) [Compound 53]", "1 (1 = None (<20% degradation at 24 h))"]
]}
